# Tested on: RAW264.7
# Assay info: Anti-inflammatory activity in mouse RAW264.7 cells assessed as inhibition of LPS-induced Il-1beta secretion measured after 24 hrs by Western blot analysis relatively to control
# Type: functional
Give YES when the value for inhibition (INH) is at least 40%. Give NO when it is less.

The examples below pair each entry with its known result.
- Cc1cccc(NS(=O)(=O)c2ccc(Br)cc2)c1C(=O)O: YES
- Cc1ccc(S(=O)(=O)Nc2ccc(C)cc2C(=O)O)cc1: NO
- Cc1ccc(S(=O)(=O)Nc2cccc(F)c2C(=O)O)cc1: YES
- Cc1ccc(S(=O)(=O)Nc2cc(C)cc(C)c2C(=O)O)cc1: YES
- Cc1cccc(NS(=O)(=O)c2ccccc2)c1C(=O)O: YES
- Cc1cccc(NS(=O)(=O)c2ccccc2F)c1C(=O)O: NO
- Cc1ccc(S(=O)(=O)Nc2cccc(NS(=O)(=O)c3ccc(C)cc3)c2C(=O)O)cc1: NO
- Cc1cccc(NS(=O)(=O)c2ccc3ccccc3c2)c1C(=O)O: NO
- COc1cccc(NS(=O)(=O)c2ccc(C)cc2)c1C(=O)O: YES

Check if inhibition (INH) >= 40% (inclusive). Item: Cc1cccc(NS(=O)(=O)c2ccc(C(F)(F)F)cc2)c1C(=O)O
YES
